Quick list: RUNX1 binding intensity per entry.
target: RUNX1 (UniProt Q01196); experiment: RUNX1 binding intensity (PBM fluorescence) in presence of ETS1, normalised to RUNX1-only experiment (arbitrary fluorescence units); higher = stronger binding; conditions: RUNX1 concentration 2 nM; ETS1 concentration 25 nM
Sequence (Q01196 whole entry): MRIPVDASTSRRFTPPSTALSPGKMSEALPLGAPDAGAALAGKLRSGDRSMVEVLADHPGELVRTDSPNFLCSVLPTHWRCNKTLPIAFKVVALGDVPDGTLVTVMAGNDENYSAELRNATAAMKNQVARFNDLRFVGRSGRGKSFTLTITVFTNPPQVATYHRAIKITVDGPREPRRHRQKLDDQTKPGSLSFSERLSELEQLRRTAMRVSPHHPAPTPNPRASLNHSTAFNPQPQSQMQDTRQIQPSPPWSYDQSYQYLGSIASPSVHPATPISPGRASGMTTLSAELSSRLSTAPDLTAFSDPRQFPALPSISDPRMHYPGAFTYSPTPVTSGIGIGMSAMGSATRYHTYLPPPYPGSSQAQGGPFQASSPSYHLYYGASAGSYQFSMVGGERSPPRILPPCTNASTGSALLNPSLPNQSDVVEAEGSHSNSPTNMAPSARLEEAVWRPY

seq-text	observable	result
GAGCGCCCACTTCCTGTTTACCACCCAGCCTCTTCG	RUNX1 binding intensity	7590
TTACCATCGCCCTTCCTGTGGGCTGGGAGGCCAGGT	RUNX1 binding intensity	1060

Could you now consider this next sequence?
Request: Query: RUNX1 binding intensity; subject: "AGCTGCATTTCCGGGCAGGCAATGAAACCACAGAGT"
Response: 2370

###

Target: ETS1 (UniProt P14921)
Sequence: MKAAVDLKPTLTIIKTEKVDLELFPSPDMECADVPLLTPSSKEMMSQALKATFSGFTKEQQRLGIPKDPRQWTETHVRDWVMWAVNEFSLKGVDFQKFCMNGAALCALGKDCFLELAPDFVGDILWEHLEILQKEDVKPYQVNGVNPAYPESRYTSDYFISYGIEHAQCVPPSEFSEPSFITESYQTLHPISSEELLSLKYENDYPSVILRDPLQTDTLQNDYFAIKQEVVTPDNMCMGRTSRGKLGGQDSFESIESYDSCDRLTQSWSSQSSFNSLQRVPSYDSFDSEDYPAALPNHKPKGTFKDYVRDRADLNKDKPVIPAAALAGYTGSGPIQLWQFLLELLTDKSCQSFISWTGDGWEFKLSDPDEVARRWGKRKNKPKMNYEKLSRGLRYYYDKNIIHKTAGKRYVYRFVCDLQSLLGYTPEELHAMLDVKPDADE
Experiment: ETS1 binding intensity (PBM fluorescence), ETS1 alone (arbitrary fluorescence units); higher = stronger binding
Settings: ETS1 concentration 1 nM; RUNX1 concentration 0 nM
observable: ETS1 binding intensity

Request: Query: ETS1 binding intensity; subject: "GGAGCAAGGATGACAGGATGTGGCTTAGGGGGAGGC"
Response: 5020

Request: Query: ETS1 binding intensity; subject: "CCCGCCGGAAGGACGCGTCTGCGTCTCTGCGGCGAG"
Response: 680

###

Biological target: ETS1 (UniProt P14921)
Sequence: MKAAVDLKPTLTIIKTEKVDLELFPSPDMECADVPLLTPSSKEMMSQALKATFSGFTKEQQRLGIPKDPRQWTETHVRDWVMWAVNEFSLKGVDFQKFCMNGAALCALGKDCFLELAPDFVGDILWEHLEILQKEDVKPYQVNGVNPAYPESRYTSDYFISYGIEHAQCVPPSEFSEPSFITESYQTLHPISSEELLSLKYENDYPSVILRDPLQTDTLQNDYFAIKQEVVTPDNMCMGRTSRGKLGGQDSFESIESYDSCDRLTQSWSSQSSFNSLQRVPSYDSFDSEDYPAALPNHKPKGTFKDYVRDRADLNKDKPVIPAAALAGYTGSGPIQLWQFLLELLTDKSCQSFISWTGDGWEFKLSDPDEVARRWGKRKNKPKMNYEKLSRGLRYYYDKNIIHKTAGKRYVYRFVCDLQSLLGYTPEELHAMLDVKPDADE
Experiment: ETS1 binding intensity (PBM fluorescence), ETS1 alone (arbitrary fluorescence units); higher = stronger binding
Conditions: ETS1 concentration 1 nM; RUNX1 concentration 0 nM
Quick list: ETS1 binding intensity per entry.
Please reply with the number alone, leaving off any unit.

seq-text	tgt	observable	number
CCGCTTCCTTAGAGGTTAAGTGGTGGTGGTTCAGTT	ETS1 (UniProt P14921)	ETS1 binding intensity	473

Request: Query: ETS1 binding intensity; subject: "ACCAAACGTCACATCCGCGGTGCTGCTGTAATCCCA"
Response: 470

Request: Query: ETS1 binding intensity; subject: "GAACTTCCGGGACCACGTGACGTAGAACCACAACAA"
Response: 587

Request: Query: ETS1 binding intensity; subject: "ACTACAACTTCCGACTTGCATCACTGCGGTGGCGCT"
Response: 425

Request: Query: ETS1 binding intensity; subject: "CTGCCGCGACAGACAGGATGTGGCTTCTGCTCTGTC"
Response: 8750

Request: Query: ETS1 binding intensity; subject: "GTGCGGCGGGAAACGCGTTCCCCGGCAACCGCGCCC"
Response: 401

###

molecular target: RUNX1 (UniProt Q01196); assay: RUNX1 binding intensity (PBM fluorescence), RUNX1 alone (arbitrary fluorescence units); higher = stronger binding; conditions: RUNX1 concentration 2 nM; ETS1 concentration 0 nM
Quick list: RUNX1 binding intensity per entry.
Please reply with the number alone, leaving off any unit.

The following sequences have reported results that may help.
seq-text	RUNX1 binding intensity
TCCGGAAGTGGCACTGATGGGCGCCTGCGGCGGGGG	758
GAGTTCTAGACTACAGGATGTGGTTAGAAGAAAAGA	837
CAAATGAATAAAGGATGTGGTAAATTATTTTCTTCT	814

Request: Identify the measured RUNX1 binding intensity of "TCGGAGACGGCGAAAGGAAACCGCAAGGAGGCCACC" for RUNX1 (UniProt Q01196).
Response: 4180

Request: Identify the measured RUNX1 binding intensity of "ATAAACAGGAAGCTGAGTATGTGACCACAGACATTC" for RUNX1 (UniProt Q01196).
Response: 840

###

molecular target: RUNX1 (UniProt Q01196); experiment: RUNX1 binding intensity (PBM fluorescence), RUNX1 alone (arbitrary fluorescence units); higher = stronger binding; settings: RUNX1 concentration 2 nM; ETS1 concentration 0 nM
Measured RUNX1 binding intensity determines class: LOW: < 800; MEDIUM: ≥ 800 and < 900; HIGH: ≥ 900

// below: answered sequences
seq-text	tgt	class
GCTTCTTCAGCCACATCCTGACCACAGCCCAGATTC	RUNX1 (UniProt Q01196)	HIGH
CACCTAAAGCCATTGGGATGTGGTTTCTCTTTTTCA	RUNX1 (UniProt Q01196)	HIGH
CAGGGCACCTCCTACTTCCCCCCGCAGATAACTACC	RUNX1 (UniProt Q01196)	HIGH
CCTGACTTCCTCCTCCCCCTCCCGCCACAATTCCGC	RUNX1 (UniProt Q01196)	HIGH
TGCGAGGTTGCCAGGAAACCGCGAAGCCGAGGTCCC	RUNX1 (UniProt Q01196)	HIGH
CCAGAGCACATCCTACACGCACCACAACCTGAAAAC	RUNX1 (UniProt Q01196)	HIGH

API: the following record is the query input.
Request: Band assignment needed for "GAAGAGGGTGGAGAAGGAAGTGGTCACACCACTTGC" please.
Response: LOW

###

Quick list: ETS1 binding intensity per entry.
Molecular target: ETS1 (UniProt P14921)
Sequence: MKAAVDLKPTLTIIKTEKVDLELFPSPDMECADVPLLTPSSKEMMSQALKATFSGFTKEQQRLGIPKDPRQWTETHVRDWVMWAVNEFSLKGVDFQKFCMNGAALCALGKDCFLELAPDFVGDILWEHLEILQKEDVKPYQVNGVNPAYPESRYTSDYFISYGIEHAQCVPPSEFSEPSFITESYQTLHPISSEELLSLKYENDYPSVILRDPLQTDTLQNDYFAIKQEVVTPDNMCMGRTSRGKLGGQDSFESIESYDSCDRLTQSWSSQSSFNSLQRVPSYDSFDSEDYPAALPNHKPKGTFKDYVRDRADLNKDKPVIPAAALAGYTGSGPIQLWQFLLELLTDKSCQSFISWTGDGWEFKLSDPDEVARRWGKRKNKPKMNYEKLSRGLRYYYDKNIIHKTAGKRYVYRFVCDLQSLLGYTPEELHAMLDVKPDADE
Assay: ETS1 binding intensity (PBM fluorescence), ETS1 alone (arbitrary fluorescence units); higher = stronger binding
Conditions: ETS1 concentration 1 nM; RUNX1 concentration 0 nM

seq-text	ETS1 binding intensity
AGGGTGTACTCGGAAGTTTCGAGTGGTTGCTTGGTT	451
CAGCCGACTTCCGGGGTGGGGCTTGCTGCCGCAGAG	1760
GCCCGGAAGCGCGACGCTGGAGCTGCGGGGTTACCA	773
CTCCCACATCCGAAGCGGCGCAACCCACAACAGCCT	445
AGAAGCTGCACCCGGAAATGAAACCACCAGGACCTC	4630

Request: Query: ETS1 binding intensity; subject: "GGGAGGGCGGAAGGCGGCTCTGCGGCAGCAAGCCCC"
Response: 476

Request: Query: ETS1 binding intensity; subject: "TATTTCCTGTGCACAGAAGCAGCTGGGCCGCAGAGT"
Response: 557

Request: Query: ETS1 binding intensity; subject: "GCTTCGTTTCCCGCCGGGGCTCACCGCGCCCCCCTA"
Response: 621

Request: Query: ETS1 binding intensity; subject: "TTTTCCGACGGAAGCCTTACTGCCGCAAACGTCACT"
Response: 556

Request: Query: ETS1 binding intensity; subject: "AGCCCCTACCACTTCCCCCCACAGCAGTTCTGAGAT"
Response: 720

Request: Query: ETS1 binding intensity; subject: "CTCCGGGAACAGCGGAAAAGGGACCGCATGAACCTC"
Response: 900

Request: Query: ETS1 binding intensity; subject: "GCCCAGGGCGGCCGGAAGTTTGCGGGGCGGGGCGGA"
Response: 8880

Request: Query: ETS1 binding intensity; subject: "GTGCCACTGAGAGGAAGGGGGCAACCACAGTGGGAG"
Response: 367

Request: Query: ETS1 binding intensity; subject: "CAGGTTGTTGAGGATGTGGAGAAACCGCAACCTCGT"
Response: 581

Ref: the supplement of paper PMC10681739
